PROPERTY: pKi
The value called pKi is obtained by taking minus log10 of the concentration in mol/L.

The recorded pKi with Serine/threonine-protein kinase PLK4 (Homo sapiens, UniProt O00444) for COc1c(Nc2cc(C)[nH]n2)nc(Sc2ccc(NC(=O)C3CC3)cc2)nc1N1CCN(C)CC1 was 7.82

###

# ASSAYED TARGET: Serine/threonine-protein kinase PLK2 (Homo sapiens, UniProt Q9NYY3)
# Sequence (Q9NYY3 whole entry): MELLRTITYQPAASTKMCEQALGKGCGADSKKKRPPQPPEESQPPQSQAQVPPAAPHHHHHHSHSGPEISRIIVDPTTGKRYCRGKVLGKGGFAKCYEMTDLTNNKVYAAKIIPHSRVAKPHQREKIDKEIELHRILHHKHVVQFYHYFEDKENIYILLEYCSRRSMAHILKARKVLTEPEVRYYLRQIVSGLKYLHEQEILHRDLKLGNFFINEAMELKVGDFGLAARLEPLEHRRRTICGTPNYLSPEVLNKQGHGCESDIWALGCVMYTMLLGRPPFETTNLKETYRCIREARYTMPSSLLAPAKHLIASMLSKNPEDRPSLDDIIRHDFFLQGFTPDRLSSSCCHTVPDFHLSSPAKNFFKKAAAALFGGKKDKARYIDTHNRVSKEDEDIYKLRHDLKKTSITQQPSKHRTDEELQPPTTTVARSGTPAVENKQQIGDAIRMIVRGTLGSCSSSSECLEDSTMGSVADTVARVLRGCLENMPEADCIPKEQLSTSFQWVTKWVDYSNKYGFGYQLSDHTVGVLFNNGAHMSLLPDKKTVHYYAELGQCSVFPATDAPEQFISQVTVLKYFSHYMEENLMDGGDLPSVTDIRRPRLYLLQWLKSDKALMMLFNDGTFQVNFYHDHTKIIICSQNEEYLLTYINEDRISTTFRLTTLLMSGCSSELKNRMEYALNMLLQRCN
PROPERTY: IC50

The recorded IC50 with Serine/threonine-protein kinase PLK2 (Homo sapiens, UniProt Q9NYY3) for Cn1c2ccccc2c2c3c(c4c5ccccc5n(CCC#N)c4c21)CNC3=O was > 19 µM
